Biological target: GLP-1 Receptor (Homo sapiens, UniProt P43220)
Sequence (P43220 24-463, species assumed): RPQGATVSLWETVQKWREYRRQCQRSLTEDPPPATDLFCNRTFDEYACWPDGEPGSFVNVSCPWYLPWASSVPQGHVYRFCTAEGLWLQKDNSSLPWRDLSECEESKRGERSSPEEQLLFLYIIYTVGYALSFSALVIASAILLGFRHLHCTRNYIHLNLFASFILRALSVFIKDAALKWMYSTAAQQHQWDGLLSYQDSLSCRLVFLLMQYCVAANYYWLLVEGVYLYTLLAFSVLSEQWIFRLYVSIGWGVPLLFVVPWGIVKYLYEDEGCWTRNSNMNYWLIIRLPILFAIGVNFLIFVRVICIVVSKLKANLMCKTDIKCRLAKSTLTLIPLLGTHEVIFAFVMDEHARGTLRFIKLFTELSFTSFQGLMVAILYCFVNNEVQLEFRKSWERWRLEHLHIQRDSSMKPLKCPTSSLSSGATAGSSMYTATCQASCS
Assay: GLP-1R agonist cAMP stimulation assay
Settings: HEK293/CRE-Luc cell line stably expressing the GLP-1 Receptor; 30 min incubation; cAMP dynamic 2 Kit (Cisbio)
quantity: EC50

| molecule | result |
| --- | --- |
| C[C@]1(c2ccc(C(N)=O)cc2F)Oc2cccc(C3CCN(Cc4ncc(-c5nnc(C(F)(F)F)[nH]5)cc4CC4(C#N)CC4)CC3)c2O1 [A-1] | < 1 nM |
| COc1cc(-c2nnn[nH]2)cnc1CN1CCC(c2cccc3c2OC(C)(c2ccc(Cl)cc2F)O3)CC1 (stereo not shown) [F-20] | > 100 nM |
| Cc1cc(-c2nnc(-c3cccnc3)s2)cnc1CN1CCC(c2cccc(OCc3ccc(Cl)cc3F)n2)CC1 [E-16] | > 100 nM |
| COCCNc1cc(-c2nnc(C(F)(F)F)[nH]2)cnc1CN1CCC(c2cccc3c2O[C@@](C)(c2ccc(Cl)cc2F)O3)CC1 [F-4] | 1 to 100 nM |
